Cited source: the supplement of paper PMC7724964

Biological target: T1, LBR 1-67 LBR_tudor (domain begin residue: 1, domain end residue: 67), Q14739
T1 chain: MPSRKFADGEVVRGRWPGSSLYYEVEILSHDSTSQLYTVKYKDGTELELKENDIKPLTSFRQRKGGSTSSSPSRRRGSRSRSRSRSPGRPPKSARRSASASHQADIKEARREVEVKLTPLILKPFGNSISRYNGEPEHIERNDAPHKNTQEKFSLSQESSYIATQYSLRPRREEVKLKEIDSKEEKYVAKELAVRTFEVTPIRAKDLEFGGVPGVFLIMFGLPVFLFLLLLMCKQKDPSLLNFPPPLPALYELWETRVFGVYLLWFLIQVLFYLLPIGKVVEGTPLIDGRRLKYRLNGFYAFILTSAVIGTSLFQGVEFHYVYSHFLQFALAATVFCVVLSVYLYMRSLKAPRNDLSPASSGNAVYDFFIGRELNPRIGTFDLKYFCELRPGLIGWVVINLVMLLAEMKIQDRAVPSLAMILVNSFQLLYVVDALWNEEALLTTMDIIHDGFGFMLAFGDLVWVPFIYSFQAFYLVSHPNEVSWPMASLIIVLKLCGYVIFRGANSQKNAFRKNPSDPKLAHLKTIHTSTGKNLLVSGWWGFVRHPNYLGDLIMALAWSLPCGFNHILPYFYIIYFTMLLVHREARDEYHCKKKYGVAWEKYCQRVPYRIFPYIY
Experiment: phage ELISA signal ratio (GST-PRM binding over GST background); higher = stronger binding of peptide-phage to the PRM
Respond with Satisfied for phage ELISA signal ratio values of 7 and above, Not satisfied for values below.

binder | group-label
QQQKHPNFALHYHQDQ | Not satisfied
DDVTWMWPPGGYFVNM | Not satisfied
FHGIWVQDELRVWMMD | Satisfied
PFTAFFVMMEWVQVPK | Not satisfied
YNFIESMYTMEPMPMH | Not satisfied
WGWDEMLNDPEIMRIV | Satisfied
YGWETIWDTFPVDMPA | Not satisfied
